Reported Ki values follow for various compounds
- assay.target: NTCP (Homo sapiens)
- Sequence (Q14973 1-349): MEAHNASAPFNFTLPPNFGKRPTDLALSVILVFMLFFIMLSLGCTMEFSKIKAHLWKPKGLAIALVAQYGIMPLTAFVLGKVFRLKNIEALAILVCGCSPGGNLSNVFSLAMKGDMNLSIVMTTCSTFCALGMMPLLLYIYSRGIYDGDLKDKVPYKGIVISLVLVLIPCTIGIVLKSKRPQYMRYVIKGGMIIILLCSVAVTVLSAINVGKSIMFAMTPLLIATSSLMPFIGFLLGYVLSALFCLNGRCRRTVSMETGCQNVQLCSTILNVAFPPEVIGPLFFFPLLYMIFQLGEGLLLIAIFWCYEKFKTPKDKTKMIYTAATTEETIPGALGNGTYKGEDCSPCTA
- assay.method.text: Taurocholate uptake inhibition study in NTCP-HEK monolayers
- Format: cell-based
- particulars: read-out: Ki (μM) NTCP; inhibition of [3H]-taurocholate uptake (2.5 μM cold taurocholate), NTCP-HEK monolayers, 5 min, 37 °C

- compound: "COC(=O)CC[C@@H](C)[C@H]1CC[C@H]2[C@@H]3[C@@H](O)C[C@@H]4C[C@H](O)CC[C@]4(C)[C@H]3CC[C@]12C [Compound 16, methyl ursodeoxycholate]"
  Ki, µM: 1.22
- compound: "C[C@H](CCC(=O)O)[C@H]1CC[C@H]2[C@@H]3[C@@H](OC(=O)c4ccc(F)cc4)C[C@@H]4C[C@H](O)CC[C@]4(C)[C@H]3CC[C@]12C [Compound 3, 7-(4-fluorobenzoyloxy) ursodeoxycholate]"
  Ki, µM: 183
- compound: "C[C@H](CCC(=O)NCC(=O)O)[C@H]1CC[C@H]2[C@@H]3[C@@H](OC(=O)c4cccnc4)C[C@@H]4C[C@H](O)CC[C@]4(C)[C@H]3CC[C@]12C [Compound 8, 7-nicotinoyl glycoursodeoxycholate]"
  Ki, µM: 11.8
- compound: "C[C@H](CCC(=O)NCC(=O)O)[C@H]1CC[C@H]2[C@@H]3[C@H](O)C[C@H]4C[C@H](OC(=O)c5cccnc5)CC[C@]4(C)[C@H]3CC[C@]12C [Compound 10, 3-nicotinoyl glycochenodeoxycholate]"
  Ki, µM: 5.38

====

- assay.target: NTCP (Homo sapiens, UniProt Q14973)
- Sequence (Q14973 1-349): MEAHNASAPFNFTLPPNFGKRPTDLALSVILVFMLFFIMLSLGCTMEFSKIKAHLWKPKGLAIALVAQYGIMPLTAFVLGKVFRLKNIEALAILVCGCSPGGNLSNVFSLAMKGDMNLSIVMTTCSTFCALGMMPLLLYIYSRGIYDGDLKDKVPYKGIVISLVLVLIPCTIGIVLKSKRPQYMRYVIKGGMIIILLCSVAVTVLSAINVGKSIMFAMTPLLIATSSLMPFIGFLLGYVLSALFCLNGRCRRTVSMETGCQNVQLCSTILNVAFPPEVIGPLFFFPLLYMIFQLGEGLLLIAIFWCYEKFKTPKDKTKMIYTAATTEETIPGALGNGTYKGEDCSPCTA
- assay.method.text: Taurocholate uptake inhibition study in NTCP-HEK monolayers
- Type: cell-based
- particulars: NTCP inhibitor class (strong / moderate / weak), class by Ki, NTCP-HEK
pKi: −log10 of the molar value.
measured.metric: pKi

- compound: "C[C@H](CCC(=O)O)[C@H]1CC[C@H]2[C@@H]3C(=O)C[C@@H]4CC(=O)CC[C@]4(C)[C@H]3CC(=O)[C@]12C [Compound 13, dehydrocholic acid]"
  measured.metric: "pKi"
  observed: "< 4.00"

These data points were gathered from paper PMC3319149.
